targetSystem: Cyclin Dependent Kinase 1/Cyclin A2 (CDK1-cycA2) (Homo sapiens)
Construct: purchased ProQinase 0134-0054-1
Sequence (P06493 whole entry): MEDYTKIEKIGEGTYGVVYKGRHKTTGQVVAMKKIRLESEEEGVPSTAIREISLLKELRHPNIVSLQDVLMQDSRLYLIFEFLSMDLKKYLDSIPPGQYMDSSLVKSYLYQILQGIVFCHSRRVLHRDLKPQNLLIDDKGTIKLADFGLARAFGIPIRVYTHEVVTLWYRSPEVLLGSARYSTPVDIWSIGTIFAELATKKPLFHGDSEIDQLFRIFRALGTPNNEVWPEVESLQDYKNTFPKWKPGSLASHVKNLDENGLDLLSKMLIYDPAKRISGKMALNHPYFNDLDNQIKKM
Sequence (P20248 whole entry partner): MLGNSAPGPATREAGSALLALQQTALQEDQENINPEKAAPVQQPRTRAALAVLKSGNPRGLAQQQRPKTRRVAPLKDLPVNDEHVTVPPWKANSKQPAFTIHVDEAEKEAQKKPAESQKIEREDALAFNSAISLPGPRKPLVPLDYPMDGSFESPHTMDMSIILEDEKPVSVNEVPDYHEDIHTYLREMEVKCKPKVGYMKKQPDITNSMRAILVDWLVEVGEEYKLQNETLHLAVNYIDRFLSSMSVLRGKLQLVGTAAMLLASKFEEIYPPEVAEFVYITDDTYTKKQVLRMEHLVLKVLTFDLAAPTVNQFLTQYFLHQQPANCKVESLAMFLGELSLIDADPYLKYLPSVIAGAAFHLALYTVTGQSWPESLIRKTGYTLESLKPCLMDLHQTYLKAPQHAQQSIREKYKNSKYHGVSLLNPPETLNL
assaySummary: CDK1-cycA2 TR-FRET (Lance) enzyme assay
Format: biochemical
experimentalContext: Table O, enzymatic assay
Hi! Just check whether Ki is below 40 nM. Below gives class 1, equal or above gives class 0.

compound	assignedClass
COc1nccc(Nc2cc([C@H]3CC[C@@H](OC(=O)NC(C)C)C3)[nH]n2)n1	class 1

Query :: Please state whether Ki is below 40 nM for `Cc1nc(S(C)(=O)=O)ccc1Nc1cc([C@H]2CC[C@@H](OC(=O)NC(C)(C)C)C2)[nH]n1`
Result :: class 0

Query :: Ki strictly < 40 nM for this compound? `O=C(NC12CC(C1)C2)O[C@@H]1CC[C@H](c2cc(Nc3ccc(CO)nc3)n[nH]2)C1`
Result :: class 1

Query :: Is the reported Ki for CC(C)(C)NC(=O)O[C@@H]1CC[C@H](c2cc(Nc3ccnc(CO)c3)n[nH]2)C1 [Example 10C] strictly below 40 nM?
Result :: class 0

Query :: Here's an entry: `Cc1cnccc1Nc1cc([C@H]2CC[C@@H](OC(=O)NC34CC(C3)C4)C2)[nH]n1` . Is its Ki below 40 nM?
Result :: class 0

Query :: Does the reported Ki of CC1(NC(=O)O[C@@H]2CC[C@H](c3cc(Nc4ccc(C#N)cn4)n[nH]3)C2)COC1 [Example 10E] stay below 40 nM?
Result :: class 1

Query :: Ki strictly < 40 nM for this compound? C[C@H](NC(=O)O[C@@H]1CC[C@H](c2cc(Nc3cccnn3)n[nH]2)C1)C(F)(F)F (single isomer, unassigned)
Result :: class 0

Query :: I wonder whether `COc1cncc(Nc2cc([C@H]3CC[C@@H](OC(=O)NC(C)C)C3)[nH]n2)n1` has Ki below 40 nM. Can you tell?
Result :: class 1

Query :: Threshold test, Ki < 40 nM: `Cn1nc(Nc2cc([C@H]3CC[C@@H](OC(=O)NC45CC(C4)C5)C3)[nH]n2)ccc1=O`
Result :: class 1

Query :: Ki strictly < 40 nM for this compound? `CNc1nccc(Nc2cc([C@H]3CC[C@@H](OC(=O)NC(C)C)C3)[nH]n2)n1`
Result :: class 1

Query :: Decide: Ki of `CC(C)NC(=O)O[C@@H]1CC[C@H](c2cc(Nc3cc(=O)[nH]cn3)n[nH]2)C1` strictly below 40 nM?
Result :: class 1

Query :: Given `CN1CCN(c2ccc(Nc3cc([C@H]4CC[C@@H](OC(=O)NC56CC(C5)C6)C4)[nH]n3)cn2)CC1` , is recorded Ki strictly lower than 40 nM?
Result :: class 1

====

List of FS CDK1/CDK2 values.
targetSystem: Cyclin Dependent Kinase 2/Cyclin E1 (CDK2-cycE1) (Homo sapiens)
Construct: purchased ProQinase 0050-0055-1
assaySummary: CDK2-cycE1 TR-FRET (LANCE) enzyme assay
Type: biochemical
experimentalContext: Table Q, fold selectivity, enzymatic
Answer with the value's number alone.

Cc1nccnc1Nc1cc([C@H]2CC[C@@H](OC(=O)NC(C)C)C2)[nH]n1 74
CC(C)NC(=O)O[C@@H]1CC[C@H](c2cc(Nc3ccncn3)n[nH]2)C1 39
CC(C)NC(=O)O[C@@H]1CC[C@H](c2cc(Nc3cccnc3)n[nH]2)C1 42
CC(C)NC(=O)O[C@@H]1CC[C@H](c2cc(Nc3ccc(=O)n(C)n3)n[nH]2)C1 36
COc1cncc(Nc2cc([C@H]3CC[C@@H](OC(=O)NC(C)C)C3)[nH]n2)n1 7.6

Query :: I have this compound here, `Cc1cnc(Nc2cc([C@H]3CC[C@@H](OC(=O)NC(C)C)C3)[nH]n2)c(C)n1` , and I need its recorded FS CDK1/CDK2.
Result :: 39

Query :: Name the reported FS CDK1/CDK2 value associated with the compound `CC(C)NC(=O)O[C@@H]1CC[C@H](c2cc(Nc3ccnc(C(F)(F)F)n3)n[nH]2)C1`
Result :: 17

Query :: Please give the measured FS CDK1/CDK2 for this compound: `Cc1cncc(Nc2cc([C@H]3CC[C@@H](OC(=O)NC(C)C)C3)[nH]n2)n1`
Result :: 24
